Where do the numbers come from? From PubChem BioAssay AID463173.

Test system: DeltatarO mutant
testDescription: S. aureus survival, RN4220 and DeltatarO strains – OD600, teichoic acid synthesis inhibitors, primary screen (AID 463173)
runConditions: S. aureus RN4220 wild type/DeltatarO growth, OD600, 18 h, hits give low values, screened at 18.75 µg/mL (by protocol)
Screen size: about 52,000 compounds; about 4,300 (8.3%) were called active. The sample holds actives, similar compounds and a random draw of the others, so the mix is not that of the screen.
Note to self: use y only for survival readings below 70%; a reading exactly at 70% still gets n.

Past entries and their recorded results:
{"molecule": "Cn1c(C(=O)Nc2cccc(C(F)(F)F)c2)cc2c(=O)n3ccccc3nc21", "experimentalSystem": "DeltatarO mutant", "groupLabel": "n"}
{"molecule": "CCc1ccc(NC(=O)CSc2ncc(S(=O)(=O)c3cc(C)ccc3C)c(=O)[nH]2)cc1", "experimentalSystem": "DeltatarO mutant", "groupLabel": "y"}
{"molecule": "CCc1cccc(NC(=O)Cn2c(=O)n(CCCCCC(=O)NCc3ccc(F)cc3)c(=O)c3sccc32)c1", "experimentalSystem": "DeltatarO mutant", "groupLabel": "y"}

Task: # check: survival < 70% for "Cc1ccc(-c2cc3ncc(C(=O)c4cc(Cl)c(C)cc4O)cn3n2)cc1"
Output: n

Task: State whether 70% exceeds survival recorded for "O=C(Nc1cccc(Cl)c1N1CCOCC1)c1ccco1" .
Output: n

Task: Criterion: survival strictly below 70%. Is it met by CCOc1ccc(CCNC(=O)C2CCN(C(=O)N3CC(CC)Oc4ccc(C)cc43)CC2)cc1 (stereo not drawn) ?
Output: y

Task: # TODO verify survival < 70% strictly for this molecule: "CCc1ccc(O)c(C(=O)c2cnc3cc(-c4ccc(C)cc4)nn3c2)c1"
Output: n

Task: Record "Cc1ccc(C)c(NC(=O)CSc2ncc(S(=O)(=O)c3ccc(C)c(Cl)c3)c(=O)[nH]2)c1" : is its survival strictly below 70%?
Output: y

Task: Is survival strictly under 70% for the entry "COc1cc(CSc2ncc(CO)n2Cc2ccc(C)cc2)cc(OC)c1" ?
Output: n

Task: Quick check: does "CCOC(=O)COc1cc(C)c(Cl)cc1C(=O)c1ccn2nc(-c3ccc(OC)cc3)cc2n1" have survival under 70%?
Output: n

Task: Given the entry "CCc1cccc(NC(=O)CN2C(=O)COc3ccc(S(=O)(=O)Nc4ccccc4)cc32)c1" , would its reported survival be below 70%?
Output: n

###

System: DeltatarO mutant
testDescription: S. aureus survival, RN4220 and DeltatarO strains – OD600, teichoic acid synthesis inhibitors, primary screen (AID 463173)
runConditions: S. aureus RN4220 wild type/DeltatarO growth, OD600, 18 h, hits give low values, screened at 18.75 µg/mL (by protocol)
Among all 52,000 compounds or so, about 4,300 (8.3%) were called active. The full list was thinned out, with actives kept by preference.
# Lookup of reported survival keyed by entry
Answer with a number only, understood to be in %.

Before answering, review these 5 worked examples.
{"molecule": "CCOc1ccc(CNC(=O)c2ccc3c(c2)sc2nc(-c4ccc(OC)cc4)cn23)cc1", "unitsSymbol": "%", "survival": 84}
{"molecule": "CCOC(=O)C1CCN(C(=O)c2ccc3c(c2)sc2nc(-c4ccccc4)cn23)CC1", "unitsSymbol": "%", "survival": 54}
{"molecule": "O=C(NCc1ccccc1)c1ccc2c(c1)sc1nc(-c3ccc(F)cc3)cn12", "unitsSymbol": "%", "survival": 101}
{"molecule": "Cc1ccccc1Nc1sc(C(=O)c2ccccc2)c(N)c1C(=O)NCc1ccc(Cl)cc1", "unitsSymbol": "%", "survival": 100}
{"molecule": "COc1cccc(Nc2sc(C(=O)c3ccc(F)cc3)c(N)c2C(=O)NCc2ccc(Cl)cc2)c1", "unitsSymbol": "%", "survival": 8}

Moving on to another molecule below.
Task: What does the record list as survival for "COc1cccc(Nc2sc(C(=O)c3ccc(Cl)cc3)c(N)c2C(=O)NCc2ccc(C)cc2)c1" ?
Output: 95

###

System: DeltatarO mutant
testDescription: S. aureus survival, RN4220 and DeltatarO strains – OD600, teichoic acid synthesis inhibitors, primary screen (AID 463173)
runConditions: S. aureus RN4220 wild type/DeltatarO growth, OD600, 18 h, hits give low values, screened at 18.75 µg/mL (by protocol)
In all, about 52,000 compounds went through this assay and about 4,300 (8.3%) were called active. What follows is part of a selection rich in actives, with near analogues and random picks from the rest.
Just a reminder that ties go to label 0: only survival strictly below 80% counts as label 1.

Task: Is survival of Cc1ccc(N2CC(NC(=O)c3ccccc3C(F)(F)F)CC2=O)cc1C (stereo not drawn) strictly below 80%?
Output: label 1

Task: Say whether its survival is strictly beneath 80%. Entry: "COc1ccccc1NC(=O)c1sc2ncn(Cc3ccccc3Cl)c(=O)c2c1C"
Output: label 0

Task: survival strictly < 80% for this molecule? Cc1ccc(-c2nc(CS(=O)CC(=O)N3CCN(c4cccc(Cl)c4)CC3)c(C)o2)cc1 (stereo not drawn)
Output: label 1

Task: Regarding Cc1ccccc1-c1nc(CS(=O)CC(=O)N2CCN(c3cc(Cl)ccc3C)CC2)c(C)o1 (stereo not drawn) , kindly confirm whether its survival is beneath 80%.
Output: label 1

Task: Is survival of "Cc1ccc(-n2nc(C)c3c(C(=O)NCc4ccc(F)cc4)cc(C)nc32)cc1" strictly below 80%?
Output: label 0

Task: For "Fc1ccc(-c2noc3ncnc(NCc4ccc(Cl)cc4)c23)cc1" , is the recorded survival below the cut-off of 80%?
Output: label 0

Task: Find out if reported survival for "Cc1nccn1S(=O)(=O)c1ccc(Cl)cc1Cl" is less than 80%
Output: label 1

Task: Bench note: check whether "Cc1oc(-c2ccccc2F)nc1CS(=O)(=O)CC(=O)N1CCN(c2ccccc2)CC1" shows survival below 80%
Output: label 1

Task: Please indicate whether the reported survival of "COc1ccc(CNC(=O)CN2C(=O)CCn3nc(-c4cn(C)c5ccccc45)cc32)cc1" is strictly below 80%.
Output: label 0

Task: For this molecule, is survival lower than 80%? Cc1oc(-c2ccc(Cl)cc2)nc1CS(=O)CC(=O)N1CCN(c2cccc(C(F)(F)F)c2)CC1 (stereo not drawn)
Output: label 0

Task: survival strictly < 80% for this molecule? Cc1oc(-c2ccccc2Cl)nc1CS(=O)CC(=O)N1CCN(c2cccc(C(F)(F)F)c2)CC1 (stereo not drawn)
Output: label 0

Task: Please determine if "COc1cc2c(=O)c(S(=O)(=O)c3ccc(F)cc3)cn(Cc3ccccc3C)c2cc1OC" is below 80% in terms of survival.
Output: label 1

Task: Does "CC(C)NC(=O)c1cnn2c(C(F)F)cc(-c3ccccc3)nc12" have survival strictly under 80%?
Output: label 0

Task: Please determine if CCN1CCN(C(=O)c2ccc3c(c2)N(Cc2ccccc2)C(=O)c2ccccc2S3=O)CC1 (stereo not drawn) is below 80% in terms of survival.
Output: label 0

Task: Dear reviewer, please state whether "Cc1nccn1S(=O)(=O)c1c(C(C)C)cc(C(C)C)cc1C(C)C" has survival strictly beneath 80%.
Output: label 0

Task: Does "COc1cc(CN2CCc3nc(Nc4ccc5c(c4)OCCO5)ncc3C2)cc(OC)c1OC" have survival strictly under 80%?
Output: label 0

###

Tested on: DeltatarO mutant
testDescription: S. aureus survival, RN4220 and DeltatarO strains – OD600, teichoic acid synthesis inhibitors, primary screen (AID 463173)
runConditions: S. aureus RN4220 wild type/DeltatarO growth, OD600, 18 h, hits give low values, screened at 18.75 µg/mL (by protocol)
The whole screen tested about 52,000 compounds, of which about 4,300 (8.3%) were called active. The full list was thinned out, with actives kept by preference.
Recorded survival by entry

Example entries and their recorded answers appear below.
{"cpdSmiles": "COc1ccc(CNC(=O)c2ccc3c(c2)CCN3S(=O)(=O)c2ccc(Cl)cc2)cc1", "survival": "62% (inactive)"}
{"cpdSmiles": "Cc1cc(=O)oc2cc(OCC(=O)NCc3ccco3)ccc12", "survival": "74% (inactive)"}
{"cpdSmiles": "COc1ccc(CCNC(=O)c2ccc3c(c2)CCN3S(C)(=O)=O)cc1", "survival": "82% (inactive)"}

Let's switch to this compound now.
Task: Which measured survival value corresponds to "COc1ccc(CNC(=O)c2ccc3c(c2)CCN3S(=O)(=O)c2ccc(C)cc2)cc1" ?
Output: 55% (inactive)

###

Test system: DeltatarO mutant
testDescription: S. aureus survival, RN4220 and DeltatarO strains – OD600, teichoic acid synthesis inhibitors, primary screen (AID 463173)
runConditions: S. aureus RN4220 wild type/DeltatarO growth, OD600, 18 h, screened at 18.75 µg/mL (by protocol)
The campaign covered roughly 52,000 compounds. About 4,300 (8.3%) were called active. Cut-off read from the data, not from the text of the source: active = survival mostly below about 52% (no sharp cut-off); inactive = mostly above about 56%. This is one part of a sample in which actives are shown more often than they occur.
Assign a class; possible classes are Y = active, N = inactive

{"molecule": "Cc1cccc(NS(=O)(=O)c2ccc3nc(-c4ccccc4)[nH]c3c2)c1C", "experimentalSystem": "DeltatarO mutant", "groupLabel": "N"}

Here's the next entry for you.
Task: I'd appreciate the recorded outcome for "CCN(CC)c1ncnc2c1cnn2-c1cc(Cl)ccc1C" from this test.
Output: Y
